All values here come from patent US20040132793A1.

assay: Metabolism in Supermix; type: in vitro ADME; conditions: human, Supermix (Gentest), pH 7.4; Supermix 0.05 μM cytochrome P450; substrate 1 μM; 37° C., 1 hour; read-out: t 1/2 (Supermix)
ATTRIBUTE MEASURED: half-life at 1 μM

Entry Cc1c(Oc2cc(C#N)cc(C#N)c2)c(C2CC2)nn1CCO [Example 1] ; half-life at 1 μM = > 2 h
